Target: Tyk2 (Homo sapiens (Human))
Sequence (P29597 whole entry): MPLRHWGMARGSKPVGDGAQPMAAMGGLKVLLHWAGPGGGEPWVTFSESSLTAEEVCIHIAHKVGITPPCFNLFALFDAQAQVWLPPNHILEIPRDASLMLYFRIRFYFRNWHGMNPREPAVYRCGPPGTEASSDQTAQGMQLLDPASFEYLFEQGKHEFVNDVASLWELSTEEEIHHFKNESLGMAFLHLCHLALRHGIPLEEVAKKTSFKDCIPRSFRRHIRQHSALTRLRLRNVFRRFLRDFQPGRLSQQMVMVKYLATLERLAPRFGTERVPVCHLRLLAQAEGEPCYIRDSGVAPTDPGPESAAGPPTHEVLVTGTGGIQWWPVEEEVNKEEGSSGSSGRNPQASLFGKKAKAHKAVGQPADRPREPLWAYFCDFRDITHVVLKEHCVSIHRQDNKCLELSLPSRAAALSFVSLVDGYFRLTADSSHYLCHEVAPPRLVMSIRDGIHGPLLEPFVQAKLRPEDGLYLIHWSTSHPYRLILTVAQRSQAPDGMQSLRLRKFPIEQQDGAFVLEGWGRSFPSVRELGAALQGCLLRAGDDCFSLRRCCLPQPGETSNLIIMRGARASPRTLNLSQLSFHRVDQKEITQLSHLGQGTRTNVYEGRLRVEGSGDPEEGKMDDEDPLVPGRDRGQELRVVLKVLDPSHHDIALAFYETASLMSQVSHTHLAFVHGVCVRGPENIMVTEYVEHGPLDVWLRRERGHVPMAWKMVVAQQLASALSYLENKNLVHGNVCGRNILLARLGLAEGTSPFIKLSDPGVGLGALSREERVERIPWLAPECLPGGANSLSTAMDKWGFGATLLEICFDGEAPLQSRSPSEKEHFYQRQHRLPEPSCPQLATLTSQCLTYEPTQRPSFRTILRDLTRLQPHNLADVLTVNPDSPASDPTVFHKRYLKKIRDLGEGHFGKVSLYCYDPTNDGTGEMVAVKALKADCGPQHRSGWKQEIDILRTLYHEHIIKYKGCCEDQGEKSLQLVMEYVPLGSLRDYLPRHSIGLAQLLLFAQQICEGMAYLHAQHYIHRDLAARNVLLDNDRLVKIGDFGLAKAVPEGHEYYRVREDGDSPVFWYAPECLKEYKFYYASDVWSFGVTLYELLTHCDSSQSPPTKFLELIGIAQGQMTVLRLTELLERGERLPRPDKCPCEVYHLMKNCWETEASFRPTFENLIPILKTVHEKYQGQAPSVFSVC
Experiment: pSTAT4 Cell Assay (MSD, NK92 cells)
Assay type: cell-based
Settings: MSD
Protocol: The inhibitory potency of compounds of the disclosure against the Tyk2 kinase activity on STAT4 was evaluated using an MSD-platform plate-based assay format. NK92 cells natively expressing STAT4 and Tyk2 were serum-starved to reduce background phosphorylation levels, then cells were treated compounds for 1 hr with a 10-point four-fold dilution series starting at 10 μM. Cells were then stimulated with 30 ng/mL IL2 for 15 minutes. […]
pIC50: −log10 of the molar value.
Measured property: pIC50

COCc1cnc(-c2cnc(NC(C)=O)cc2Nc2cc(C)nc(C(C)(F)F)n2)nc1 [Example 672] | ≥ 8.00
COCCOc1cnc(NC(C)=O)cc1Nc1nc(C)cc(C(C)(C)F)n1 [Example 441] | 6.00 to 7.00

Query: So what's the measured pIC50 for this one? CC(=O)Nc1cc(Nc2ccnc(C(C)(F)F)n2)c(-c2nnc(C(C)(C)C)s2)cn1 [Example 715]
Result: ≥ 8.00

Query: So what's the measured pIC50 for this one? COCc1cnc(NC(C)=O)cc1Nc1cc(C)nc(C(C)(F)F)n1 [Example 47]
Result: ≤ 6.00

Query: So what's the measured pIC50 for this one? CC(=O)Nc1cc(Nc2cc(C)nc(C(C)(F)F)n2)c([C@@H]2CCCO2)cn1 (single isomer, unassigned) [Example 279]
Result: 6.00 to 7.00

Query: So what's the measured pIC50 for this one? COc1cnc(NC(C)=O)cc1Nc1cc(-c2cnn(C3COC3)c2)nc(C(C)(F)F)n1 [Example 377]
Result: 7.00 to 8.00

Query: So what's the measured pIC50 for this one? COCc1ccc(-c2cnc(NC(C)=O)cc2Nc2ccnc(C3CCOC3)n2)nc1 (centres unmarked) [Example 567]
Result: 7.00 to 8.00

Query: So what's the measured pIC50 for this one? CC(=O)Nc1cc(Nc2cc(C)nc(C(C)(F)F)n2)c(OCc2nc(C)ns2)cn1 [Example 343]
Result: 7.00 to 8.00

###

Measured IC50, listed per entry.
Target: JH2 domain of human Tyk2 (Homo sapiens (Human))
Assay: JH2 Biochemical Assay (TR-FRET probe displacement)
Assay type: binding
Conditions: TR-FRET probe displacement, JH2 domain of human Tyk2

Here are 5 compounds together with their reported answers.
CC(=O)Nc1cc(Nc2cc(C)nc(C(C)(F)F)n2)c(OCCCF)cn1 | ≤ 10 nM
CC(=O)Nc1cc(Nc2cc(C)nc(C(C)(F)F)n2)c(OCC2CCO2)cn1 (centres unmarked) | ≤ 10 nM
CCOc1cnc(NC(=O)C2CC2)cc1Nc1cc(C)nc(C(C)(F)F)n1 | 10 to 100 nM
CC(=O)Nc1cc(Nc2cc(C)nc(C(C)(F)F)n2)c(-c2cc(OC(C)C)ncn2)cn1 | ≤ 10 nM
CCc1cc(Nc2cc(NC(=O)OC)ncc2OCCN(C)C)nc(C(C)(F)F)n1 | ≤ 10 nM

Query: So what's the measured IC50 for this one? `COCCOc1cnc(NC(C)=O)cc1Nc1nc(C)cc(C(C)(F)F)n1`
Result: ≤ 10 nM

Query: So what's the measured IC50 for this one? `C=C(F)c1cncc(Nc2cc(NC(C)=O)ncc2OCCOC)n1`
Result: ≤ 10 nM

Query: So what's the measured IC50 for this one? `COc1cc(-c2cnc(NC(C)=O)cc2Nc2cc(C)nc(C(C)(C)F)n2)ncn1`
Result: ≤ 10 nM

Query: So what's the measured IC50 for this one? `CC(=O)Nc1cc(Nc2cc(C)nc(C34CC(CO3)C4)n2)c(-c2ccc(COC(F)F)cn2)cn1`
Result: ≤ 10 nM

Query: So what's the measured IC50 for this one? `CCOc1cnc(NC(C)=O)cc1Nc1cc(-c2cnn(CCN(C)C)c2)nc(C(C)(F)F)n1`
Result: ≤ 10 nM

Query: So what's the measured IC50 for this one? `COc1cc(Nc2cc(NC(C)=O)ncc2OC)nc(C(C)(F)F)n1`
Result: ≤ 10 nM

Query: So what's the measured IC50 for this one? `CCc1cc(Nc2cc(NC(C)=O)ncc2-c2noc(C)n2)nc(C(C)(F)F)n1`
Result: 10 to 100 nM

Query: So what's the measured IC50 for this one? `CC(=O)Nc1cc(Nc2cc(C)nc(C(C)(F)F)n2)c(OCC2(CF)CCOCC2)cn1`
Result: 10 to 100 nM

Query: So what's the measured IC50 for this one? `CC(=O)Nc1cc(Nc2cc(C)nc(C(C)(F)F)n2)c(-c2cc(C)ncn2)cn1`
Result: ≤ 10 nM

Query: So what's the measured IC50 for this one? `COc1cc(Nc2cc(NC(C)=O)ncc2-c2ccn(C)n2)nc(C(C)(F)F)n1`
Result: ≤ 10 nM

Query: So what's the measured IC50 for this one? `COc1ccnc(COc2cnc(NC(C)=O)cc2Nc2cc(C)nc(C(C)(F)F)n2)n1`
Result: 10 to 100 nM

Query: So what's the measured IC50 for this one? `[2H]C([2H])([2H])C([2H])([2H])Oc1cnc(NC(C)=O)cc1Nc1cc(C(C)C)nc(C(C)(F)F)n1`
Result: ≤ 10 nM

###

Target: UniProt P29597
Assay: pSTAT4 Cell Assay (MSD, NK92 cells)
Assay type: cell-based
Details: MSD
pIC50: −log10 of the molar value.
Measured property: pIC50

Here are 3 compounds together with their reported answers.
CC(=O)Nc1cc(Nc2cc(C)nc(C(C)(F)F)n2)c(OCc2noc(C)n2)cn1 [Example 498] | 6.00 to 7.00
CC(=O)Nc1cc(Nc2cc(C)nc(C(C)(F)F)n2)c(OCC2(F)CC2)cn1 [Example 99] | ≥ 8.00
CCOc1cnc(NC(C)=O)cc1Nc1cccc(C(C)(F)F)n1 [Example 1] | ≥ 8.00

// moving on: another record for pIC50
Query: So what's the measured pIC50 for this one? CC(=O)Nc1cc(Nc2cccc(C(C)(F)F)n2)c(-c2ccc(=O)n(C)n2)cn1 [Example 158]
Result: ≥ 8.00

###

Target: JH2 domain of human Tyk2 (Homo sapiens (Human), UniProt P29597)
Sequence (P29597 575-876): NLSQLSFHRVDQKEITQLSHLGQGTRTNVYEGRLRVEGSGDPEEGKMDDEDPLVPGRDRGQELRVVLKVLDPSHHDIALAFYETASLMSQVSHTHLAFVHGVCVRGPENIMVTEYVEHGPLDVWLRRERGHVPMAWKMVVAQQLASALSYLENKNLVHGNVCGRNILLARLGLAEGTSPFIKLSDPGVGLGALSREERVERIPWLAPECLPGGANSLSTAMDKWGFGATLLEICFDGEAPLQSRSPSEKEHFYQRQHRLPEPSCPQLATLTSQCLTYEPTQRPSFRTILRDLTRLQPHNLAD
Assay: JH2 Biochemical Assay (TR-FRET probe displacement)
Assay type: binding
Conditions: TR-FRET probe displacement, JH2 domain of human Tyk2
Structures can show the parent of a compound that is named as a salt.
Measured property: IC50

Query: So what's the measured IC50 for this one? `CCOc1cnc(NC(C)=O)cc1Nc1cc(-c2cnn(C(=O)OC(C)(C)C)c2)nc(C(C)(F)F)n1`
Result: ≤ 10 nM

Query: So what's the measured IC50 for this one? `COc1cc(-c2cnc(NC(C)=O)cc2Nc2ccnc(C(C)(F)F)n2)ncn1`
Result: ≤ 10 nM

Query: So what's the measured IC50 for this one? `COCc1cnc(NC(C)=O)cc1Nc1cc(C)nc(C(C)(F)F)n1`
Result: 10 to 100 nM

Query: So what's the measured IC50 for this one? `CC(=O)Nc1cc(Nc2cc(C)nc(C(C)(F)F)n2)c(OC[C@H](C)OC(C)(C)C)cn1`
Result: ≤ 10 nM

Query: So what's the measured IC50 for this one? `CC(=O)Nc1cc(Nc2cccc(C(C)(F)F)n2)c(OCCN2CCCC2)cn1`
Result: ≤ 10 nM

Query: So what's the measured IC50 for this one? `COCCCc1cnc(NC(C)=O)cc1Nc1cc(C)nc(C(C)(F)F)n1`
Result: 10 to 100 nM

Query: So what's the measured IC50 for this one? `CCOCCn1ccc(-c2cnc(NC(C)=O)cc2Nc2cc(C)nc(C(C)(F)F)n2)n1`
Result: ≤ 10 nM

Query: So what's the measured IC50 for this one? `CC(=O)Nc1cc(Nc2cc(C)nc(C(C)(F)F)n2)c(OC(C)C)cn1`
Result: ≤ 10 nM

Query: So what's the measured IC50 for this one? `CC(=O)Nc1cc(Nc2cc(C3CC3)nc(C(C)(F)F)n2)c(-c2ccn(C)n2)cn1`
Result: ≤ 10 nM

Query: So what's the measured IC50 for this one? `COCCn1ccc(-c2cnc(NC(C)=O)cc2Nc2cc(C)nc(C(C)(F)F)n2)n1`
Result: ≤ 10 nM

Query: So what's the measured IC50 for this one? `CC(=O)Nc1cc(Nc2ccnc(C(C)(F)F)n2)c(-c2ccc(C#N)cn2)cn1`
Result: ≤ 10 nM

Query: So what's the measured IC50 for this one? `CC(=O)Nc1cc(Nc2ccnc(C(C)(F)F)c2)c(-c2ncc(F)cn2)cn1`
Result: 10 to 100 nM

Query: So what's the measured IC50 for this one? `CC(=O)Nc1cc(Nc2cc(C)cc(C(C)(F)F)n2)c(-c2ncc(F)cn2)cn1`
Result: ≤ 10 nM

Query: So what's the measured IC50 for this one? `CC(=O)Nc1cc(Nc2cc(C)nc(C(C)(F)F)n2)c(-c2cccc(OC(F)F)n2)cn1`
Result: ≤ 10 nM

Query: So what's the measured IC50 for this one? `[2H]C([2H])([2H])C(=O)Nc1cc(Nc2cc(C)nc(C(C)(F)F)n2)c(-c2ccc(OC)nn2)cn1`
Result: ≤ 10 nM

Query: So what's the measured IC50 for this one? `COCCOc1cnc(NC(C)=O)cc1Nc1nccc(C(C)(F)F)n1`
Result: ≤ 10 nM

Query: So what's the measured IC50 for this one? CC(=O)Nc1cc(Nc2cc(C)nc(C(C)(F)F)n2)c(-c2cc3n(n2)CCN(C(C)=O)C3)cn1 [Example 222, trifluoroacetate]
Result: ≤ 10 nM
